Target: BCL-XL (Homo sapiens, UniProt Q07817)
Construct: endogenous in cells; host or cells: MOLT-4
Sequence (Q07817 whole entry): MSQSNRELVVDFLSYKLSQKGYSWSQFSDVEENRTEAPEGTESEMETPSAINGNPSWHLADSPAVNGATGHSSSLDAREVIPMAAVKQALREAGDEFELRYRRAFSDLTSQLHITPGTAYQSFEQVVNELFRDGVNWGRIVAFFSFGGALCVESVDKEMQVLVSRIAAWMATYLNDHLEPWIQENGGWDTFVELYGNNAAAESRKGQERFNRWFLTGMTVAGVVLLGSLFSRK
Experiment: Bcl-xL ELISA degradation in MOLT-4 cells, 6 h
Assay type: cell-based
Procedure: The letter codes for BCL-XL DC50 include: A (<0.01 μM); B (0.01-0.1 μM); C (>[…]); D (>0.5-1.0 μM); and E (>1.0 μM). The letter codes for Dmax % include A (>75%); B (50 to 75%); C (<50%).
measurementType: Dmax

Inquiry: // fetch Dmax given entry C#Cc1ccc(CNC(=O)[C@@H]2C[C@@H](O)CN2C(=O)[C@@H](NC(=O)C2CCN(c3ccc(S(=O)(=O)NC(=O)c4nc(N5CCc6cccc(C(=O)Nc7nc8ccccc8s7)c6C5)ccc4-c4cnn(CC5CCCCC5)c4C)cc3)CC2)C(C)(C)C)c(OC)c1 [I-254]
Reply text: > 75%

Inquiry: // fetch Dmax given entry Cc1ncsc1-c1ccc([C@H](C)NC(=O)[C@@H]2C[C@@H](O)CN2C(=O)[C@@H](NC(=O)C2CCN(c3ncc(S(=O)(=O)NC(=O)c4nc(N5CCc6cccc(C(=O)Nc7nc8ccccc8s7)c6C5)ccc4-c4cnn(CC5CCCCC5)c4C)cn3)CC2)C(C)(C)C)cc1 [I-250]
Reply text: > 75%

Inquiry: // fetch Dmax given entry Cc1ncsc1-c1ccc([C@H](C)NC(=O)[C@@H]2C[C@@H](O)CN2C(=O)[C@@H](NC(=O)N2CCC3(CCN(CC#Cc4ccc(OCCCc5sc(N6CCc7cccc(C(=O)Nc8nc9ccccc9s8)c7C6)nc5C(=O)O)c(F)c4)CC3)CC2)C(C)(C)C)cc1 [I-71]
Reply text: < 50%

Inquiry: // fetch Dmax given entry Cc1ncsc1-c1ccc([C@H](C)NC(=O)[C@@H]2C[C@@H](O)CN2C(=O)[C@H](NC(=O)CCCCCCCS(=O)(=O)NC(=O)c2nc(N3CCc4cccc(C(=O)Nc5nc6ccccc6s5)c4C3)ccc2-c2cnn(CC34CC5CC(CC(C5)C3)C4)c2C)C(C)(C)C)cc1 [I-284]
Reply text: > 75%

---

Target: BCL-XL (Homo sapiens, UniProt Q07817)
Construct: endogenous in cells; host or cells: MOLT-4
Assay: BCL-XL degradation assay, western blot in MOLT-4 cells, 16 h
Format: cell-based
Conditions: western blot, MOLT-4 cells, 16 h; read-out: Bcl-xL WB in MOLT-4 degradation 16 h: Mean external-Abs DC50
Listing of entries alongside the reported DC50.

Cc1ncsc1-c1ccc([C@H](C)NC(=O)[C@@H]2C[C@@H](O)CN2C(=O)[C@@H](NC(=O)[C@H]2CC[C@H](CC(=O)N3CCN(CC[C@H](CSc4ccccc4)Nc4ccc(S(=O)(=O)NC(=O)c5ccc(N6CCN(CC7=C(c8ccc(Cl)cc8)CCC(C)(C)C7)CC6)cc5)cc4S(=O)(=O)C(F)(F)F)CC3)CC2)C(C)(C)C)cc1 [I-391] : 10 to 100 nM

Inquiry: // fetch DC50 given entry Cc1ncsc1-c1ccc([C@H](C)NC(=O)[C@@H]2C[C@@H](O)CN2C(=O)[C@@H](NC(=O)CCc2ccc(S(=O)(=O)NC(=O)c3nc(N4CCc5cccc(C(=O)Nc6nc7ccccc7s6)c5C4)ccc3-c3cnn(CC4CCCCC4)c3C)cc2)C(C)(C)C)cc1 [I-123]
Reply text: < 10 nM

Inquiry: // fetch DC50 given entry Cc1ncsc1-c1ccc(CNC(=O)[C@@H]2C[C@@H](O)CN2C(=O)C(c2cc(OCCCC(=O)N3CCN(CC[C@H](CSc4ccccc4)Nc4ccc(S(=O)(=O)NC(=O)c5ccc(N6CCN(CC7=C(c8ccc(Cl)cc8)CCC(C)(C)C7)CC6)cc5)cc4S(=O)(=O)C(F)(F)F)CC3)no2)C(C)C)cc1 (stereo partly shown) [I-38]
Reply text: 100 to 500 nM

Inquiry: // fetch DC50 given entry Cc1ncsc1-c1ccc(CNC(=O)[C@@H]2C[C@@H](O)CN2C(=O)[C@@H](NC(=O)C2(F)CC2)C(C)(C)C)c(OCCCN(C)CC[C@H](CSc2ccccc2)Nc2ccc(S(=O)(=O)NC(=O)c3ccc(N4CCN(CC5=C(c6ccc(Cl)cc6)CCC(C)(C)C5)CC4)cc3)cc2S(=O)(=O)C(F)(F)F)c1 [I-184]
Reply text: 10 to 100 nM

Inquiry: // fetch DC50 given entry Cc1cc(N(CCN(C)C(=O)CCCCCCCCOc2cc(-c3scnc3C)ccc2CNC(=O)[C@@H]2C[C@@H](O)CN2C(=O)[C@@H](NC(=O)C2(F)CC2)C(C)(C)C)c2ccc(-c3cnn(CC4CCCCC4)c3C)c(C(=O)O)n2)nnc1Nc1nc2ccccc2s1 [I-104]
Reply text: > 1000 nM

Inquiry: // fetch DC50 given entry Cc1ncsc1-c1ccc(CNC(=O)[C@@H]2C[C@@H](O)CN2C(=O)[C@@H](NC(=O)C2(F)CC2)C(C)(C)C)c(OCCCCCCCC(=O)NCCOc2ccc(C(=O)Nc3nc4ccccc4s3)c3c2CCN(c2ccc(-c4cnn(CC5CCCCC5)c4C)c(C(=O)O)n2)C3)c1 [I-48]
Reply text: 100 to 500 nM

Inquiry: // fetch DC50 given entry Cc1ncsc1-c1ccc([C@H](C)NC(=O)[C@@H]2C[C@@H](O)CN2C(=O)[C@@H](NC(=O)CCCCCCCCC(=O)N2CCN(CC#Cc3ccc(OCCCc4sc(N5CCc6cccc(C(=O)Nc7nc8ccccc8s7)c6C5)nc4C(=O)O)c(F)c3)CC2)C(C)(C)C)cc1 [I-204]
Reply text: < 10 nM
